# Tested Target: matriptase (Homo sapiens (Human))
# Sequence (Q9Y5Y6 whole entry): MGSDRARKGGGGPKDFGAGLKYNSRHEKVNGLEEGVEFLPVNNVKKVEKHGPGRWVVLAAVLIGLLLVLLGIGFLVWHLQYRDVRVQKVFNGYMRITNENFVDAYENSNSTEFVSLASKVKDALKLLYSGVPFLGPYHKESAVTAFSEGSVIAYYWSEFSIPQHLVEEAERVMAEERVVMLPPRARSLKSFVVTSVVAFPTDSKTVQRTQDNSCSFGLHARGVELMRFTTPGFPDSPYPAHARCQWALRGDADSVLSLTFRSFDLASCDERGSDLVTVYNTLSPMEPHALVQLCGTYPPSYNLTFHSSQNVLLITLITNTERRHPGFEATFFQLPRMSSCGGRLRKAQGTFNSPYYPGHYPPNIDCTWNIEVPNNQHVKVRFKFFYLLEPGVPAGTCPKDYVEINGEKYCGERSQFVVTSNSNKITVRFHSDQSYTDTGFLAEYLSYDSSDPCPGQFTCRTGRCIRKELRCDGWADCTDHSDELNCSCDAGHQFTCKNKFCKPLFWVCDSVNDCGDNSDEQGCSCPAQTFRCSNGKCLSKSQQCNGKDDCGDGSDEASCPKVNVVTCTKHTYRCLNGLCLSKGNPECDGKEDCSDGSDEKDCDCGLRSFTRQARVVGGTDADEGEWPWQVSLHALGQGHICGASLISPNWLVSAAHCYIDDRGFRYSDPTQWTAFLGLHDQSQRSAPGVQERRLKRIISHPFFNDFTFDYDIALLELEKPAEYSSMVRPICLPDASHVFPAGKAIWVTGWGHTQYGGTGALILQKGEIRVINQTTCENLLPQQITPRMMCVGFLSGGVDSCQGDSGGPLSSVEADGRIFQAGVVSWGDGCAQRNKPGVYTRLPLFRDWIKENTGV
Field 'label' (enum: MET / NOT MET). Set to MET when Ki is strictly under 30 nM; else NOT MET.

| Compound | Class Label |
| --- | --- |
| Cc1nccc(-c2cccc(S(=O)(=O)N[C@@H](Cc3cccc(C(=N)N)c3)C(=O)N3CCC(CCN)CC3)c2)n1 | MET |
| CNC(=O)CCCC1CCN(C(=O)[C@H](Cc2cccc(C(=N)N)c2)NS(=O)(=O)c2cccc(NC(=O)C3CNC3)c2)CC1 | MET |
| N=C(N)c1cccc(CC(NS(=O)(=O)c2cccc(-c3ccccc3)c2)C(=O)N2CCC(CCN)CC2)c1 (stereo not shown) | NOT MET |
| N=C(N)c1cccc(C[C@H](NS(=O)(=O)c2cccc(NC(=O)CCN)c2)C(=O)N2CCC(C(=O)OCc3ccccc3)CC2)c1 | MET |
| COC(=O)CCCC1CCN(C(=O)[C@H](Cc2cccc(C(=N)N)c2)NS(=O)(=O)c2cccc(NC(=O)CCN)c2)CC1 | MET |
| N=C(N)c1cccc(C[C@H](NS(=O)(=O)c2cccc(NC(=O)CCN)c2)C(=O)N2CCC(C(N)=O)CC2)c1 | MET |
| N=C(N)c1cccc(C[C@H](NS(=O)(=O)c2cccc(CCCCN)c2)C(=O)N2CCC(CCN)CC2)c1 | MET |
| CCOc1ccc(-c2cccc(S(=O)(=O)NC(Cc3cccc(C(=N)N)c3)C(=O)N3CCC(CCN)CC3)c2)cc1 (stereo not shown) | MET |
| CNC(=O)CCCC1CCN(C(=O)[C@H](Cc2cccc(C(=N)N)c2)NS(=O)(=O)c2cccc(-c3ccc(N)nc3)c2)CC1 | MET |
| NCCC(=O)Nc1cccc(S(=O)(=O)N[C@@H](Cc2cccc(CN)c2)C(=O)N2CCC(CCN)CC2)c1 | NOT MET |
| N=C(N)c1cccc(CC(NS(=O)(=O)c2cccc(-c3ccc4[nH]ccc4c3)c2)C(=O)N2CCC(CCN)CC2)c1 (stereo not shown) | MET |
| CNC(=O)CCCC1CCN(C(=O)C(Cc2cccc(C(=N)N)c2)NS(=O)(=O)c2cccc(-n3ncccc3=O)c2)CC1 (stereo not shown) | NOT MET |
| N=C(N)c1cccc(C[C@H](NS(=O)(=O)c2cccc(NC(=O)CCN)c2)C(=O)N2CCN(C(=O)OCc3ccccc3)CC2)c1 | MET |
| N=C(N)c1cccc(CC(NS(=O)(=O)c2cccc(-c3ccccc3Cl)c2)C(=O)N2CCC(CCN)CC2)c1 (stereo not shown) | MET |
| N=C(N)c1cccc(C[C@H](NS(=O)(=O)c2cccc(NC(=O)CCN)c2)C(=O)N2CCNCC2)c1 | NOT MET |
| N=C(N)c1cccc(CC(NS(=O)(=O)c2cccc(-c3cccc(Cl)c3)c2)C(=O)N2CCC(CCN)CC2)c1 (stereo not shown) | NOT MET |
| CNC(=O)CCCC1CCN(C(=O)[C@H](Cc2cccc(C(=N)N)c2)NS(=O)(=O)c2cccc(-c3ccc(C(C)C)cc3)c2)CC1 | MET |
| CNC(=O)CCCC1CCN(C(=O)[C@H](Cc2cccc(C(=N)N)c2)NS(=O)(=O)c2cccc(N3CCCCC3=O)c2)CC1 | NOT MET |
| N=C(N)c1cccc(C[C@H](NS(=O)(=O)c2cccc(NC(=O)CCN)c2)C(=O)N2CCC(CCCC(N)=O)CC2)c1 | MET |

The measurements presented in this section are drawn from patent US8569313B2.
